- procedure-details: viability loss with induced miR-34 in A549 – imaging, A549 dox-inducible miR-34, nuclei and caspase counts, primary screen (AID 1347080); also: test concentration not given here
- condition-set: A549 miR-34 inducible, Hoechst nuclei count, 48 h; measured here: total cells with miR-34 induction; stronger effect = lower value
Task for the reader: assign each of the following compounds its reported cell count.

*Q* Give cell count for CCCCC/C=C\C\C=C/C=C/C=C/[C@@H](SC[C@H](N)C(=O)NCC(=O)O)[C@@H](O)CCCC(=O)O
*A* 5990

*Q* Give cell count for Cc1ccc(CN2CCN(c3ncnc4sccc34)CC2=O)cc1
*A* 4200

*Q* Give cell count for CCC(CC)(NC(=O)C(C)C)C(=O)NC(CCCN=C(N)N)C(=O)NC1(C(=O)NC(c2ccc(F)cc2)c2ccc(F)cc2)CCCC1 (centres undefined)
*A* 9110

*Q* Give cell count for CO[C@H]1[C@@H]([C@@]2(C)O[C@@H]2CC=C(C)C)[C@]2(CC[C@H]1OC(=O)/C=C/C=C/C=C/C=C/C(=O)O)CO2
*A* 6670

*Q* Give cell count for Cc1[nH]c2ccccc2c1CCNCc1ccc(C=CC(=O)NO)cc1
*A* 1040

*Q* Give cell count for O=c1ccn2c(n1)OC1C(O)C(CO)OC12 (centres undefined)
*A* 8620

*Q* Give cell count for CC(C)CC(=O)N[C@H](C(=O)NC(C(=O)NC(CC(C)C)[C@@H](O)CC(=O)N[C@@H](C)C(=O)N[C@@H](CC(C)C)[C@@H](O)CC(=O)O)C(C)C)C(C)C (some centres undefined)
*A* 12400

*Q* Give cell count for COc1ccc(F)c(-c2cccc(N)n2)c1
*A* 8940

*Q* Give cell count for COC(C)(C)CCCC(C)C/C=C/C(C)=C/C(=O)O (centres undefined)
*A* 5680
